- TEST_SYSTEM: Phospho-N-acetylmuramoyl-pentapeptide-transferase (Escherichia coli K-12, UniProt P0A6W3)
- Sequence (P0A6W3 whole entry): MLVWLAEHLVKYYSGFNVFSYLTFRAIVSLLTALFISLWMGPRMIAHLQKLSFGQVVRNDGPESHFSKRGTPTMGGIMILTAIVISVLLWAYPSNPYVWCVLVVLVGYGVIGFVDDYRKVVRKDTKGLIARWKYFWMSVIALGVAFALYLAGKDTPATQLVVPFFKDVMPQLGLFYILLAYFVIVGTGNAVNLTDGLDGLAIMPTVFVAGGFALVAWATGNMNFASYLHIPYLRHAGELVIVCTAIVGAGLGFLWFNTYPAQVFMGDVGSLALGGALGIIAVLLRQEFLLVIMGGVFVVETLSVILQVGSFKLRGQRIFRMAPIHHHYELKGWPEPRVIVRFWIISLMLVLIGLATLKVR
- ASSAY_TEXT: Inhibition of Escherichia coli Translocase (mraY)
Friendly reminder: IC50 below 100 µM is class 1, at or above is class 0.

CCCCCCNC[C@H]1O[C@@H](OC[C@H]2O[C@@H](n3ccc(=O)[nH]c3=O)[C@H](O)C2O)[C@H](O)C1O (single isomer, unassigned) : class 0
O=CNC[C@H]1O[C@@H](OC[C@H]2O[C@@H](n3ccc(=O)[nH]c3=O)[C@H](O)C2O)[C@H](O)C1O (single isomer, unassigned) : class 0
CC(=O)NC[C@H]1O[C@@H](OC[C@H]2O[C@@H](n3ccc(=O)[nH]c3=O)[C@H](O)[C@@H]2O)[C@H](O)[C@@H]1O : class 0
NC[C@H]1O[C@@H](OC[C@H]2O[C@@H](n3ccc(=O)[nH]c3=O)[C@H](O)C2O)[C@H](O)C1O (single isomer, unassigned) : class 1
C[N+](C)(C)C[C@H]1O[C@@H](OC[C@H]2O[C@@H](n3ccc(=O)[nH]c3=O)[C@H](O)C2O)[C@H](O)C1O (single isomer, unassigned) : class 0
CC(C)NC[C@H]1O[C@@H](OC[C@H]2O[C@@H](n3ccc(=O)[nH]c3=O)[C@H](O)C2O)[C@H](O)C1O (single isomer, unassigned) : class 0
CCNC[C@H]1O[C@@H](OC[C@H]2O[C@@H](n3ccc(=O)[nH]c3=O)[C@H](O)C2O)[C@H](O)C1O (single isomer, unassigned) : class 0
N=C(N)NC[C@H]1O[C@@H](OC[C@H]2O[C@@H](n3ccc(=O)[nH]c3=O)[C@H](O)[C@@H]2O)[C@H](O)[C@@H]1O : class 1
